tested on: Pseudomonas aeruginosa; test: Antagonist activity at rhlA in Pseudomonas aeruginosa harboring rhlA-gfp gene assessed as inhibition of […]-induced quorum sensing by green fluorescence protein reporter assay
Activity calls are given as the source filed them. The calls are words filed in the database; no cut-off is given here.
measurement-kind: inhibition

smiles-notation: O=Cc1cccc(-n2cc(CCC(=O)N[C@H]3CCOC3=O)nn2)c1
reported-measurement: inactive

smiles-notation: O=C(Cn1cc(C2CCCCC2)nn1)N[C@H]1CCOC1=O
reported-measurement: inactive

smiles-notation: [N-]=[N+]=Nc1cccc(C(=O)N[C@H]2CCOC2=O)c1
reported-measurement: inactive

* * *

assay: Agonist activity at lasB in Escherichia coli harboring lasB-gfp gene by green fluorescence protein reporter assay
Form field: pEC50 (one value per entry).
Scale: pEC50 equals -log10([C]), with [C] in mol/L.

smiles-notation: CCCCCc1cn(CC(=O)N[C@H]2CCOC2=O)nn1
pEC50: 6.00
--
smiles-notation: O=C(Cn1cc(CC2CCCCC2)nn1)N[C@H]1CCOC1=O
pEC50: 5.10
--
smiles-notation: O=C(Cn1cc(CSc2ccccc2)nn1)N[C@H]1CCOC1=O
pEC50: 5.70

pEC50 lookup needed for CCCCCCc1cn(CC(=O)N[C@H]2CCOC2=O)nn1 , thanks.
4.92

Name the recorded pEC50 for O=C(Cn1cc(C2CCCC2)nn1)N[C@H]1CCOC1=O .
5.52
